Values compiled from BindingDB's records for doi:10.1021/jm00001a007.

target: 5-hydroxytryptamine 2A receptor; assay: Binding affinity towards 5-hydroxytryptamine 2A receptor in rat cortex preparations using [3H]ketanserin
Structures can show the parent of a compound that is named as a salt.
Measured Property: Kd

Give reported Kd value for CN1CC[C@@H]2CN3CCc4cccc(c43)[C@@H]2C1 [SDZ SER 082 FUMARATE]
631 nM

* * *

molecular target: D(2) dopamine receptor (Bos taurus); test: Binding affinity towards Dopamine receptor D2 of calf striatal tissue using [3H]spiperone
Sequence (P20288 whole entry): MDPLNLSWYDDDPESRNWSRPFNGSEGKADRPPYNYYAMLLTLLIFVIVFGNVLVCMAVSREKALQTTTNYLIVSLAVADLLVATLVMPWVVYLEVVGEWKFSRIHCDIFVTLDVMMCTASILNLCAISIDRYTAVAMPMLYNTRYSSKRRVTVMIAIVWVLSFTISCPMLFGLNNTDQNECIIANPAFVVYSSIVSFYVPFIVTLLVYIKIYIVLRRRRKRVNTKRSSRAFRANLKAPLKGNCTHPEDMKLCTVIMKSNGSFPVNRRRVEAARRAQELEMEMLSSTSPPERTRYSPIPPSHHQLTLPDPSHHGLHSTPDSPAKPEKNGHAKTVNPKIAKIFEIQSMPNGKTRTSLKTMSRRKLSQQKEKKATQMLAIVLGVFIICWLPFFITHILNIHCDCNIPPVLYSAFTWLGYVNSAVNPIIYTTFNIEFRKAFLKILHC
pKd: −log10 of the molar value. Counter-ions that a name gives are not always drawn.
Measured Property: pKd

Return pKd for the following compound: CN1CC[C@@H]2CN3CCc4cccc(c43)[C@@H]2C1 [SDZ SER 082 FUMARATE]
> 5.00
